# System: SR leukemia
# test_details: NCI tumour cell line growth inhibition, 48 h
Where a SMILES comes first, the peptide text is derived from it. The star is where a group is joined. Cbz = O=C(OCc1ccccc1)*; Boc = CC(C)(C)OC(=O)*; OSu = O=C1CCC(=O)N1O*; Bn = c1ccc(C*)cc1
value_kind: TGI

Input line: Note TGI for the molecule shown: CO[C@@H]1C=C[C@@]23c4cc5c(cc4C(=O)O[C@H]2CN(C)[C@H]3C1)OCO5
Output line: > 100 µM

Input line: Note TGI for the molecule shown: Cc1cc(S(=O)(=O)Nc2cc(N)[nH]n2)c(SCc2nc(N)nc(N(C)C)n2)cc1Cl
Output line: > 10 µM

Input line: Note TGI for the molecule shown: CC1CC(=O)Nc2ccccc2N1C(=O)CN1CCC(CCCCN(C)C)CC1 (configuration not stated)
Output line: > 100 µM

Input line: Note TGI for the molecule shown: Cc1cccc2c1N(C(=O)/C=C\C(=O)O)C(c1c(C)[nH]c3ccccc13)C2 (configuration not stated)
Output line: > 100 µM

Input line: Note TGI for the molecule shown: C[C@H](Nc1ncnc2nc[nH]c12)c1cc2ccc(F)cc2nc1-c1ccccn1
Output line: > 100 µM

Input line: Note TGI for the molecule shown: CC1C[C@H](C)CC(C(O)CC2CC(=O)N(Cc3ccccc3)C(=O)C2)C1O (some centres not stated)
Output line: > 100 µM

Input line: Note TGI for the molecule shown: CCN1C(=O)N(CC)C2Nn3c(s/c(=C\c4ccccc4Br)c3=O)=NC21 (configuration not stated)
Output line: 8.3 µM

Input line: Note TGI for the molecule shown: OCC(O)C(O)C(O)c1nn(-c2ccc(Cl)cc2)c2nc3cc(Cl)c(Cl)cc3nc12 (configuration not stated)
Output line: > 100 µM

Input line: Note TGI for the molecule shown: COc1cc(C2C(C#N)=C(N)OC3=C2CCS(=O)(=O)c2ccc(C)cc23)cc(OC)c1OC (configuration not stated)
Output line: > 100 µM

Input line: Note TGI for the molecule shown: COc1ccc(C(=O)COC(=O)[C@H](C[Se][Se]C[C@H](NC(=O)c2ccc(Br)cc2F)C(=O)OCC(=O)c2ccc(OC)cc2)NC(=O)c2ccc(Br)cc2F)cc1
Output line: 4.82 µM

Input line: Note TGI for the molecule shown: COc1cc(OC)c(/C=C\c2ccnc3ccccc23)c(OC)c1
Output line: 12.6 µM

Input line: Note TGI for the molecule shown: Oc1ccc(N=C2CCC(=C(c3ccccc3)c3ccc(Nc4ccc(O)cc4)cc3)CC2)cc1
Output line: > 100 µM

Input line: Note TGI for the molecule shown: COC(=O)C(=O)C(C(=O)C(=O)Nc1nc2ccc(C)cc2s1)c1nc2ccc([N+](=O)[O-])cc2[nH]c1=O (configuration not stated)
Output line: > 100 µM

Input line: Note TGI for the molecule shown: CC(C)(C)OC(=O)NC(Cc1ccc(OCc2ccccc2)cc1)C(=O)NC(CCCCNC(=O)OCc1ccccc1)C(=O)ON1C(=O)CCC1=O (configuration not stated) (Boc-Tyr(Bn)-Lys(Cbz)-OSu; configuration not given here)
Output line: 54.9 µM

Input line: Note TGI for the molecule shown: CCOC(=O)n1cc(C2=C(c3cn(C)c4ccccc34)COC2=O)c2ccccc21
Output line: 16.4 µM

Input line: Note TGI for the molecule shown: O=C1Nc2c(C(F)(F)F)cccc2[C@@]1(c1ccc(O)cc1)c1ccc(OC(F)(F)F)cc1
Output line: 29.5 µM

Input line: Note TGI for the molecule shown: CCOc1ccc(N/C(Cl)=C(Cl)\C(=C(\Nc2ccc(OCC)cc2)n2nnc3ccccc32)[N+](=O)[O-])cc1
Output line: 5.26 µM
